system: PPARg homodimer (NR concentration 180 nM); assay: PBM binding z-score (relative to random genomic background probes); higher = stronger binding; sequences stand for … in GC…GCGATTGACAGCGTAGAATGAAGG
For each record, write down the corresponding PBM binding z-score.
Just the number, please, no unit attached.

So for `CCTTACGAGTCACTCCAGGTTATAGCATCGGAGT` , the logged PBM binding z-score turned out to be 1.41

Record `CGTCCCAGGTCAAAGGTCAGTGAAGAGATGACGG` . Reported PBM binding z-score: 3.77

Value of PBM binding z-score reported for the sequence `CCCAGTTGGTCAAGGTCACACACGCTATAGGTAC` is 4.04

Kindly note the recorded PBM binding z-score for `CCTTACGGGTCACGAGGTGATAGCACGACGAGCG` , which is 3.17

PBM binding z-score reported for this sequence `TTACCAAGGTGAGCTGAGGTCGTTGGTCCAACTC` : -0.363

Entry under test: `GAGACAGGGTCAAGGCCAGAGTACGCGTATTGAT` . Its PBM binding z-score was 2

# PBM binding z-score (sequence: `ATCTCTAGGTAAAAGTTCAATGAATCCCGAGGAT` ) is 2.08

The reported PBM binding z-score of the sequence `TCTATTCGTTGAAGGGCAACCGACGAGTCCGTTT` was 0.703

Reported PBM binding z-score of `CGATCTAGGTCATTGACAGGACAGTGAATAGTAA` : 1.92

`TAGCCTAGGTCATTCAGGGGCCGGTATAGAAAGC` has a reported PBM binding z-score of 1.79

Just so you know, measured PBM binding z-score for `ATACCAAGGTGATCGTGAGGGCGTTGATACTAAC` came out at 0.383

GET /value?item= `TCATATAGGTAAACAGGTGAAATTCCGTAAGTTA` &field=PBM binding z-score returns 1.3

# sequence `AATACAGGGTCATCGTAAGCCAGAGTACGCACAG` ; its PBM binding z-score = 1.65

get_value(item= `TAGCCTGGGTCAGATCGGGCCAGTATACGCTATA` , readout=PBM binding z-score) returns -0.849

The reported PBM binding z-score of the sequence `TGGCCTAGGTCAGATCGGGCCAGTATACGCTATA` was -0.396

The recorded PBM binding z-score for entry `TTAACAAGGTGAAGGTCGTTGATCCCTCTGTAGA` equals 0.4

The sequence listed as `ATACCAAGGTGATCGTGAGGCCGTTGATACTAAC` has a reported PBM binding z-score of 0.381

Record `CTACAAAGGTGAACAAGGTCGTTGATTACTATTC` , field PBM binding z-score: 1.57

Lab book: PBM binding z-score of `TCATATAGGTAAATTCTAGGTGAAAGTCCGATCT` noted as 1.09

# sequence `GCGACTGGGGCATAAGCAGGTTACCATAACTTAA` ; its PBM binding z-score = 0.497

The sequence listed as `CGTCCAATGTCAATGCTAGGTCAGTGAAAGCATT` shows PBM binding z-score equal to 0.93

According to the records, this sequence `ATATGTAGGTTACATCCGGGTCATTGAGGCTATG` displays PBM binding z-score of 1.82

The sequence listed as `AGAATAAGGTTAAGATCAGGGAAACAGAATACAT` has a reported PBM binding z-score of 1.6

So, `CGTCCAAGGTCATAGGCGGTCAGTGAAGACAGAT` ? Its PBM binding z-score was 2.85

`CCGACTGGGGCGTAAGGTTACCATAAGCCAGCCC` has a reported PBM binding z-score of 0.0631

For record `CGAACTAGGTCACAGAGGTCAAAGTCCGTGCGTA` the listed PBM binding z-score is 9.8

PBM binding z-score reading for `TAGCCTAGGTCAGATAGGGCCAGTATACGCTATA` : 0.391

GET /value?item= `CGAACTAGGTCATCCAGGACAGGGAATACATTGA` &field=PBM binding z-score returns 1.77

// recorded PBM binding z-score for `CCTACTGGGCCATTCACAGGTCATTGATCATATG` : 1.37

Documented PBM binding z-score of `TCTAGCCGGCCAGAGGGTCACTCAAGAGGTACGG` : 0.24

PBM binding z-score recorded for this sequence, `TCATATAGGTAAAAGGCGAAAGTCGGTGTGGTAA` , is 0.768

Input `TAGCCTAGGTCATTCAGGGGCGAGTATAGAAAGC` . Output PBM binding z-score: 1.3

# sequence `CCTCGGAGGACAACTGGAGGTCAGAGCTGCCAGA` ; its PBM binding z-score = 2.05

Recorded PBM binding z-score (sequence `CAACCTAGGTCAAGGTCAAAGTCGGTTTGTGCCA` ): 3.33

`CGAACTAGGTCAGAAAAGGACAGTGAAGGATGAT` has a reported PBM binding z-score of 1.15

response.value for `TCGAGTAGGTTAGTCGGGGCACTCAGCCAACATA` (field: PBM binding z-score) = 0.481

So for `CCGACTGGGGCAAAGGTTACAATACTCAGTACGA` , the logged PBM binding z-score turned out to be 1.56

For reference, reported PBM binding z-score for `AGTCAAAGTTCAGGAAGAGGTAACGTAAAGCACG` stands at 2.21

Note to self: PBM binding z-score recorded for `AGAACGAGGGGACGCTGAGTTGATAGCAGAGTAG` was -0.427

Memo: `GCTTGTAGATCAAGGTTAACAAAGACTAAGCTAA` , reported PBM binding z-score: 0.0842

Entry under test: `GCTATTAGTTGCAAGGGCAACCGAATGATTCTCG` . Its PBM binding z-score was 0.499

For `CCTACTGGGCCAAAAAGGTCCTTGATGCCGATAA` the sequence record lists PBM binding z-score as -0.196

Reported PBM binding z-score for `CCTCGGAGGACAACAGGAGGTCAGAGGTGCCAGA` was 1.99

Input `AGAATGAGGGCACGCTGAGTTGATAGCAGAGTAG` . Output PBM binding z-score: 0.535

The value of PBM binding z-score measured for the sequence `TGAATGAGGTTAAAGATCAGGAAACGTGGCGTCG` turned out to be 1.22

PBM binding z-score in this record for `AGAATGAGGTTATACGTAGAGCAGGGAAGAAAGT` : 1.79

The reported value for `AGTCAAAGTTCAGGACGAGGTAACGTATAGCACG` in terms of PBM binding z-score is 2.09

PBM binding z-score reported for this sequence `CAAACTAGCTCACCGGAAGGTCAAAGTCCGCATG` : 2.25

// sample `AGTCAAAGTTCACTAGGTAAGGTAAGATTCAGCT` , its PBM binding z-score was 2.55

Field PBM binding z-score (entry `TCTAGCAGGCCAGAGGGTGACTCAAGAGGTACGG` ) reads -0.406

Query `CCTACTGGGCCCAAGGTCATTGATTCCAATGCTC` yields PBM binding z-score of 1.42
